Experiment Description: folding stability dG unfold from trypsin proteolysis; higher = more stable
Returns one of Fulfilled or Not fulfilled; Fulfilled when folding stability dG unfold is >= 0.5 kcal/mol.

- Sequence String: "SAGGSAGGWIIRIHFPNGHEHTFKIKSPEEAKDRIMDHHGMPPDKIPPETIKDVEIIPPDAMKESAGGSAGG [r6_588_TrROS]"
  Class Label: "Not fulfilled"
- Sequence String: "SAGGKKIVIFIGPPEQMDRMQEQHPDEPVIPIPRDALQDPEPAKNLIKELQEKGKDVEIYLFKDFKPSAGGS [r8_376_TrROS]"
  Class Label: "Not fulfilled"
- Sequence String: "SAGEELIKKLAEELNLEVEIVSVEVDEETPTITVEVRVRNKDGEELTVRITITYDKETDEVHIEVEVLPSAG [r5_929_TrROS_Hall]"
  Class Label: "Fulfilled"
- Sequence String: "SAGGSAGGSAGGSWITFRIPEGNPEFIEELARGFGIKPKRINPNRGTITIKLPPGAKIVSAGGSAGGSAGGS [r4_3_TrROS]"
  Class Label: "Not fulfilled"
- Sequence String: "SAGGDSISDIESVNIYSFNIPSNPYPYIIAELTIPDGRKIIAIYDPSTNTVTIIIEDDGKPRIITLPASAGG [r13_960_TrMRF]"
  Class Label: "Fulfilled"
- Sequence String: "SANPGKPVTIEIPVEEIRQKLNEENPDKPLTPSELKDLAKELIQRQGFPFKDVEIKSVNPGNGWIKIKVSAG [r14_303_TrROS]"
  Class Label: "Fulfilled"

Entry SAGGMTVTLEIEIPAEELSEEELKALLEELFPNAEVTVERLPDGTLRITIRVEVPPAPPEVVVLPDKSAGGS [r16_535_TrROS_Hall] : is its folding stability dG unfold no less than 0.5 kcal/mol?
Fulfilled
